assay: Surfactant solubility in hydrofluoroether (HFE) solvents by visual clarity; format: physicochemical; settings: Novec 7300, room temperature (23° C.)
Each entry below lists one item and its recorded Max. Solubility value.

Study these solved cases before continuing.
{"columns": ["compound", "Max. Solubility"],
 "data": [
  ["O=S(=O)(NCCOCCO)C(F)(F)C(F)(F)C(F)(F)C(F)(F)F [H-FBS(EE) (III), C4F9SO2N(H)CH2CH2OCH2CH2OH]", ">10 wt %"],
  ["O=S(=O)(NCCO)C(F)(F)C(F)(F)C(F)(F)C(F)(F)F [H-FBSE (X), C4F9SO2NH(CH2CH2OH)]", "0.06 wt %"],
  ["O=S(=O)(N(CCOCCO)CCOCCO)C(F)(F)C(F)(F)C(F)(F)C(F)(F)F [FBS(EE)2 (IV), C4F9SO2N(CH2CH2OCH2CH2OH)2]", "0.2-0.3 wt %"]
]}

Tell me measured Max. Solubility for O=S(=O)(N(CCO)CCOCCO)C(F)(F)C(F)(F)C(F)(F)C(F)(F)F [FBSE(EE) (V), C4F9SO2N(CH2CH2OCH2CH2OH) (CH2CH2OH)] please.
0.9 wt %

State, in one line, measured Max. Solubility of CC(O)CN(CCO)S(=O)(=O)C(F)(F)C(F)(F)C(F)(F)C(F)(F)F (stereo not drawn) [FBSEP (VIII), C4F9SO2N(CH2CH2OH)CH2CH(CH3)OH]
1.4 wt %

State its Max. Solubility: O=S(=O)(N(CCO)CCO)C(F)(F)C(F)(F)C(F)(F)C(F)(F)F [FBSEE (IX), C4F9SO2N(CH2CH2OH)2]
0.03 wt %
